The values you see were collected from the nanobody polyreactivity screen of Harvey et al. (2022).

EXPERIMENTAL PROTOCOL: yeast display, Sf9 membrane polyspecificity reagent, FACS + sequencing; frameworks hold sequencing errors
PROPERTY: polyreactivity (PSR sort gate)

Observe how each entry below is paired with its result.
POLYMER SEQUENCE	RESULT
QVQLVESGGGLVQAGGSLRLSCAASGSTIVRYAMGWNRQAPGKERELVAAISSRGGCTYYADSVKGRFTISRDNAKNTVYLQMNSLKPEDTAVYYCNADYSVGSWGQGTQVTVSS	high polyreactivity
QVQLQESGGGLVQEGGSLRLSCAASGNISPPADMGWYRQAPGKERELVASIGTGGTTNYADSVKGRCTISRDNAKNTVYLQMNSLKPDDTAVYYCAAVRYEYNPYDYWGQGTQVTVSS	low polyreactivity
QVQLVESGGGLVQAGGSLRLSCAASGIIFWYYAMGWYRQAPGKDRELVARITTAGITNYADSVKGRFTISRDNAKNTVYLQMNSLKPEDTAVYYCAADTYWHYRGPGYDYWGQGTQVTVAS	low polyreactivity
QVQLVESGGGVVQAGGSLRLSCAASGSPFGFYTMGGYRQAPGKERELVAAISWSTGRTYYADSVKGRFTISRDKAKNTVDLQMNSLKPEDTAVYYCAADYYWKLFHEPPAVYDYDYWGQGTQVTVSS	low polyreactivity

What the record says about `QEHLVESGGGLVQAGGTLRLSCAASGGTFYVNDMGWYRQPPGKESELVATITYSGTSTYYADSVTGSFTISRDNAKNTVYLQMNSLKPEDTAVYYGATDVLLYLEPVNLDYCGQGTQVTVSS` : polyreactivity (PSR sort gate) is low polyreactivity

What the record says about `QVQLVESGGGLVQAGGSLRLSCAASGSIFWWNTMGWYRQAPGKERELVAAITFSGGSTYYADSVKGRFTISRDNAKNTVYLQMNSLKPEDTAVYYCNADGWVSVRGTWSDGGYWGQGTQVTVSS` : polyreactivity (PSR sort gate) is low polyreactivity

What the record says about `QVQLVESGGGIVQAGVSLRLSCAASGGTLCTYAMGWYRQAPGKERELVASIDSGDSTYYADSVKGRFTISRDNAKNTVYLQMNSLKPEDTAVYYCAAAYFRRYTTTWYGYEYWGQGTQVTVSS` : polyreactivity (PSR sort gate) is low polyreactivity
